These entries and their values trace back to ChEMBL document CHEMBL3832541.

Tested on: Homo sapiens
EXPERIMENT_SUMMARY: Evaluation of pharmacokinetic parameters for Doxorubicin hydrochloride following single intravenous administration of Doxorubicin hydrochloride solution to patients with various types of tumors.
Format: ADME, organism-based
TEST_CONDITIONS: in vivo, iv, dosed compound id 8, dosed compound name DOXORUBICIN HYDROCHLORIDE, regimen Single dose, tissue Plasma

{"columns": ["COMPOUND", "t1/2-terminal"],
 "data": [
  ["COc1cccc2c1C(=O)c1c(O)c3c(c(O)c1C2=O)C[C@@](O)(C(=O)CO)C[C@@H]3O[C@H]1C[C@H](N)[C@H](O)[C@H](C)O1.Cl [DOXORUBICIN HYDROCHLORIDE]", "20 to 48 h"]
]}
